experiment: viability loss of HPDE-C7K cells – cell-based, fluorescence, HTS, primary screen (AID 431); details: HPDE-C7K KRASV12 cells, Alamar Blue viability, 48 h; at 10 µM; hits give high values;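 further: 0% = DMSO solvent wells and 100% = doxorubicin-treated wells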
The whole screen tested about 63,000 compounds, of which about 1,100 (1.7%) were called active. Only a selection was taken, and actives are over-represented in it overall. Potency and affinity values are given separately.
REPORTED PROPERTY: cytotoxicity (%)
Answers are plain numbers, in %.

[[record]]
molecule = "COc1cccc(Oc2cn[nH]c2-c2ccc(OC)cc2O)c1"
reported_property = "cytotoxicity"
measurement = 80.7


Answer for every listed entry: what is its cytotoxicity? The entries follow.
1. COC(=O)c1sccc1NC(=O)c1ccncc1
2. CCS(=O)(=O)CCSc1nc2ccccc2o1
3. O=C(Cc1cccs1)Nc1ccc(C(=O)O)cc1
4. CCOc1ccc(S(=O)(=O)Nc2cc(OC)ccc2OC)cc1
5. CCOC(=O)CSc1nc(N)c(C#N)c(-c2ccc(OC)cc2)c1C#N
6. c1ccc2oc(SCc3nc4ccccc4s3)nc2c1

Output:
1: 5.9; 2: -13.9; 3: -2.8; 4: 75.9; 5: -14.8; 6: 1.9

Answer for every listed entry: what is its cytotoxicity? The entries follow.
1. COc1ccc(-c2[nH]ncc2-c2cnn(-c3ccccc3)c2)c(O)c1
2. O=C(CSc1nc2ccccc2s1)Nc1ncccn1
3. CCOC(=O)CC(=O)CSc1nc(N)c(C#N)c(-c2ccc(Cl)cc2)c1C#N
4. CCCCOc1ccc(-c2c(C#N)c(N)nc(SCC(N)=O)c2C#N)cc1
5. COC(=O)C1=C(C)N=C2SCCC(=O)N2C1c1cccs1 (configuration not stated)

Output:
1. 2.7
2. -2
3. 68.4
4. 105
5. 12.3
